From: PubChem BioAssay AID680

# Target or system: Coagulation factor XI (Homo sapiens) (UniProt P03951)
# Sequence (P03951 19-387 limits assumed): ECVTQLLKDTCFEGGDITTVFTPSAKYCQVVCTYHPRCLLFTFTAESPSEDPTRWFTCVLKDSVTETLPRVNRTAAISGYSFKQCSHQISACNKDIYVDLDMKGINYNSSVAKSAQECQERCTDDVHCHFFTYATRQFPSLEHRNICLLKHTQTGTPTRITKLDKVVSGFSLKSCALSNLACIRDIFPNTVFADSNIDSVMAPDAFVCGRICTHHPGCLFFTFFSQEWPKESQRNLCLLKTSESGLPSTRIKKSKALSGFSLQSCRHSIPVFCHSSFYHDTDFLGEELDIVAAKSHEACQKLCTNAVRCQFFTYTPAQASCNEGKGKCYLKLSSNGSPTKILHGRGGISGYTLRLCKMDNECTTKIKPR
# Sequence (P03951 388-625 limits assumed): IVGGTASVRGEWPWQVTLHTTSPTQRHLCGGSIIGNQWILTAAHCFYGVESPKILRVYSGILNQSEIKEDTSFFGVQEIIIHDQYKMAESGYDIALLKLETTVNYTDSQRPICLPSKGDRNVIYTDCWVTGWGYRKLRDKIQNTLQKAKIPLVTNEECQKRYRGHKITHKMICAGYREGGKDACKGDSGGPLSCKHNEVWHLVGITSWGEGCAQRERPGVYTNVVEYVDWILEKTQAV
# Test description: FXIa protease inhibitors in compound pools, primary screen, biochemical, 10-compound mixtures (AID 680);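 further: each value is inhibition by a whole ten-compound pool holding the compound; 0% = enzyme with no mixture and 100% = wells lacking enzyme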
# Details: purified FXIa, fluorogenic substrate, pooled mixtures; at 5 µM; stronger effect = higher value
About 120 (0.19%) of roughly 62,000 compounds were called active. The full list was thinned out, with actives kept by preference.
Measurement kind: inhibition (%)
Use % as the unit, but write only the number.

Some molecules with known inhibition results, for comparison:
[
  {
    "Molecule": "CC(C)(C)Oc1ncc(Br)c(OC(C)(C)C)n1",
    "inhibition, %": -2.49
  },
  {
    "Molecule": "CCOCCOC(=O)C1=C(C)N(C)C(=O)NC1c1ccccc1F (configuration not stated)",
    "inhibition, %": 5
  },
  {
    "Molecule": "Cc1cc(C)c(C#N)c(SCc2[nH]nc3c2C(c2ccccc2)C(C#N)=C(N)O3)n1 (configuration not stated)",
    "inhibition, %": 1.67
  },
  {
    "Molecule": "Cn1c(=NC(=O)c2cnccn2)sc2ccccc21",
    "inhibition, %": 5.25
  }
]

Input: Report inhibition for CCC(=O)Nc1ccc(C(=O)CSc2nnc(CNc3ccc(Cl)cc3)o2)cc1OC please.
Output: 1.04
